Listing of recorded pIC50 by entry.
Molecular target: DR4w4 (DRB1*0401) (Homo sapiens, UniProt P01903+P01911, A100K/A169T/F76Y/I96L/K127E/L162R/M171V/N62H/P40V/Q125Y/R42H/S133A/S149N/S66Y/V115G/V209L/W38E)
Assay: biochemical
Type: binding
No end group written: not given here.
Field pIC50 (float): negative decimal logarithm of the concentration in molar.

So what's the measured pIC50 for this one? LNVLKTSNAKAAMLA [Peptide 89.0003]
8.47

Others:
So what's the measured pIC50 for this one? DNDVMDDSEIAYKYA [Peptide 90.0069]
5.43

So what's the measured pIC50 for this one? MAIFGVNPTVAEGFK [Peptide 89.0081]
7.12

So what's the measured pIC50 for this one? RYRFQKYKTLFVDVT [Peptide 90.0019]
6.21

So what's the measured pIC50 for this one? QERPRKLPQLCTELQ [Peptide 1543.22]
5.29

So what's the measured pIC50 for this one? DWCVAAFGVTGTVAE [Peptide 89.0042]
6.53

So what's the measured pIC50 for this one? YFKYFKEDAAKYSKT [Peptide 90.0205]
7.15

So what's the measured pIC50 for this one? HQVVPALSVSKAKAL [Peptide 89.0169]
6.40

So what's the measured pIC50 for this one? AFQVIELQMALETLS [Peptide 89.0181]
7.21

---

Biological target: DRB1*1201 (Homo sapiens, UniProt P01903+P01911, A100R/A169T/D57E/D86V/F55L/H45Y/K41T/L162R/M171V/P40S/Q125H/Q178H/Q39Y/Q99D/R42G/S66L/T262R/V114A/V67L/W38E/Y59H/Y61H/Y89S)
Test: biochemical
Assay type: binding
Result type: IC50 (µM)
Quick reminder: number only, in µM, skip the unit.

So what's the measured IC50 for this one? CC[C@H](C)[C@H](N)C(=O)N[C@@H](CO)C(=O)N[C@H](C(=O)N[C@H](C(=O)N[C@@H](CC(N)=O)C(=O)N[C@@H](CCC(=O)O)C(=O)N[C@@H](CC(=O)O)C(=O)NCC(=O)N[C@@H](CC(N)=O)C(=O)N[C@@H](CCC(=O)O)C(=O)N[C@H](C(=O)N[C@@H](Cc1ccccc1)C(=O)N[C@@H](CC(N)=O)C(=O)N[C@H](C(=O)N[C@@H](CO)C(=O)O)[C@@H](C)O)[C@@H](C)CC)[C@@H](C)CC)[C@@H](C)CC [Peptide 68.0166]
10.7

Others:
So what's the measured IC50 for this one? CC(C)C[C@H](NC(=O)[C@H](CCC(=O)O)NC(=O)[C@H](CCCCN)NC(=O)[C@H](C)NC(=O)[C@H](CC(C)C)NC(=O)[C@@H](NC(=O)[C@H](CO)NC(=O)[C@H](CCCNC(=N)N)NC(=O)[C@@H](N)CC(=O)O)C(C)C)C(=O)N[C@@H](CCCCN)C(=O)N[C@@H](Cc1ccccc1)C(=O)N[C@H](C(=O)N[C@H](C(=O)N[C@@H](CC(C)C)C(=O)N[C@H](C(=O)O)C(C)C)[C@@H](C)O)C(C)C [Peptide 68.0024]
0.301
